# measurement.protocol: chemical genetic growth profiling, strain panel (AID 1159580);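 also: tested at 20 µM; growth read once vehicle control cultures reached saturation at 30 °C; 1 = growth at the plate median or of vehicle wells; lower values mean less growth of the strain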
# condition: S. cerevisiae deletion strains, growth OD, locus YOR270C, strain vph1, stronger effect = lower value
The campaign covered roughly 5,500 compounds. About 2,000 (36%) were called active. Inconclusive results (about 18%) are left out. This is one part of the list. Where a SMILES comes first, the peptide text is derived from it. Bridges are numbered along the chain shown (N, C = ends). [ ]: non-standard residue; d: D form. The star is where a group is joined. ξ: configuration not given here. ξDab(CH2SO3H) = NC(CCNCS(=O)(=O)O)C(=O)O; Heptanoyl(6-Me) = CC(C)CCCCC(=O)*; Dab = NCC[CH](N)C(=O)O
quantity.measured: normalized growth
Lab note: record just the number, no unit beside it.

Query: normalized growth; subject: O=c1ccc2ccc(O)cc2o1
0.985

Moving on to COc1ccc2c(c1)c(CC(=O)OCC(=O)O)c(C)n2C(=O)c1ccc(Cl)cc1
1

Moving on to Cc1cc(O)ccc1Cl
1.01

Moving on to CCC(C)C1NC(=O)C(CCNCS(=O)(=O)O)NC(=O)C(NC(=O)C(CCNCS(=O)(=O)O)NC(=O)C(NC(=O)C(CCNCS(=O)(=O)O)NC(=O)CCCCC(C)C)C(C)O)CCNC(=O)C(C(C)O)NC(=O)C(CCNCS(=O)(=O)O)NC(=O)C(CCNCS(=O)(=O)O)NC(=O)C(C(C)CC)NC1=O (stereo not given) ({Heptanoyl(6-Me)}-[ξDab(CH2SO3H)]T[ξDab(CH2SO3H)][Dab][ξDab(CH2SO3H)]II[ξDab(CH2SO3H)][ξDab(CH2SO3H)]T; lactam 4-C; configuration not given here)
0.834

Moving on to Nc1ccc(S(=O)(=O)Nc2ccnn2-c2ccccc2)cc1
0.997
